Experiment: Hematotoxicity against RBC assessed as formation of methemoglobin at 20 ug/ml relative to control
Assay type: cell-based
Settings: erythrocyte
Please note: YES applies when Methemoglobin formation is 6% or greater, and NO applies otherwise.

Reference set (5 entries):
CCCCCOc1c(OC)cc(NC(C)CCCNC(=S)NCCCC(C)Nc2cc(OC)c(OCCCCC)c3c(CC)ccnc23)c2nccc(CC)c12.Cl.Cl (configuration not stated) | NO
COc1cc(NC(C)CCCNC(=O)NCCCC(C)Nc2cc(OC)cc3cccnc23)c2ncccc2c1.Cl.Cl (configuration not stated) | YES
COc1cc(NC(C)CCCNC(=O)c2cccc(C(=O)NCCCC(C)Nc3cc(OC)cc4ccc(C(C)(C)C)nc34)n2)c2nc(C(C)(C)C)ccc2c1.Cl (configuration not stated) | NO
CCCCCOc1c(OC)cc(NC(C)CCCNC(=O)NCCCC(C)Nc2cc(OC)c(OCCCCC)c3c(CC)ccnc23)c2nccc(CC)c12.Cl.Cl (configuration not stated) | NO
COc1cc(NC(C)CCCNC(=O)C(=O)NCCCC(C)Nc2cc(OC)cc3cccnc23)c2ncccc2c1.Cl.Cl (configuration not stated) | YES

Prompt line: Identify whether the reported Methemoglobin formation of the following compound is 6% or greater: COc1cc(NC(C)CCCNCC(=O)NCCCC(C)Nc2cc(OC)cc3ccc(C(C)(C)C)nc23)c2nc(C(C)(C)C)ccc2c1.Cl.Cl (configuration not stated)
Response line: NO
